The measurements presented in this section are drawn from patent US20200407457A1.

Listing of recorded eff. (efficiency %), cytotoxic effect on Jurkat E6-1 cells by entry.
# target_entity: TRAILR2 receptor on the surface of human tumor cells (human, UniProt O14763 56-440)
# assay_info: cell-based or functional assay
Give the value in % but do not write % after it.

[
  {
    "binder": "Zapadcine-3a (antibody, V domains shown, MMAE coupled through linker PY-VC-PAB by thiol bridge coupling, cleavable; positions not given) VH: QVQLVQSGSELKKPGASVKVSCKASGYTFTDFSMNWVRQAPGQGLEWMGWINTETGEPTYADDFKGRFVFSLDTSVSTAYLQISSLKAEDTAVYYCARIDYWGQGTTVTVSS VL: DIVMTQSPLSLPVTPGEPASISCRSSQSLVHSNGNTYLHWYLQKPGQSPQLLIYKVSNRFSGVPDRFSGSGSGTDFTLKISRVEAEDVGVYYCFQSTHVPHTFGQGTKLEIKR",
    "output_unit": "%",
    "number": 80.2
  },
  {
    "binder": "Zapadcine-3e (antibody, V domains shown, MMAF coupled through linker MC by thiol conventional coupling, non-cleavable; positions not given) VH: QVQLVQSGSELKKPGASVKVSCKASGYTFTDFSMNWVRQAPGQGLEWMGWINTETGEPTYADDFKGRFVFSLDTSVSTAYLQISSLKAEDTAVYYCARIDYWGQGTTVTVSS VL: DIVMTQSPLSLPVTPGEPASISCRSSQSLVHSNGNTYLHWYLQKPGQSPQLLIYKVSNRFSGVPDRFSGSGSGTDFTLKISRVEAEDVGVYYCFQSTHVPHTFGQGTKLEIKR",
    "output_unit": "%",
    "number": 90.7
  }
]

Next binder, eff. (efficiency %), cytotoxic effect on Jurkat E6-1 cells to be filled in.
Tell me the measured eff. (efficiency %), cytotoxic effect on Jurkat E6-1 cells of Zapadcine-3d (antibody, V domains shown, MMAE coupled through linker MC by thiol conventional coupling, non-cleavable; positions not given) VH: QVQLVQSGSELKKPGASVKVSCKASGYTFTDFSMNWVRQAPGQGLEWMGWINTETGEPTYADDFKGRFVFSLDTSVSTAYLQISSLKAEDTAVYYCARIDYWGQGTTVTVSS VL: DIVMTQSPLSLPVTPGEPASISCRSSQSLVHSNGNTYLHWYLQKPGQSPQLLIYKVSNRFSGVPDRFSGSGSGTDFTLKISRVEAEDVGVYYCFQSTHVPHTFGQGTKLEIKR , please. 98.9
